# assayExplanation: soluble fraction after stress (log2 fold change); higher = more stays soluble; pooled small domains, quantitative proteomics
# conditionDescription: stress: pH 4
The threshold is inclusive: soluble fraction (log2) of exactly 0.03 counts as YES; values below receive NO.

Example results:
| polymerSequence | cat |
| --- | --- |
| HMNPLHYKAAHWVREGLFDDLKSFVELETRINSIFEEKDRGDVFEIFIEGYRSFSKWRALVLRLA | NO |
| HMEELIEMNGVVMEILPDSRYRVTLDNGHKLIAYTGGKMKKNHIRILAGDKVTLELSPYDINNGRITFRHI | NO |
| HMDIDGVSENGRLILAALDKEALDFDTLAAETGIQESRLRTELTLLEIRKLIMKLPGQRYRLI | YES |
| HMQIAGLDDIDNRIIDLLLKNGRASYSEIGAAVGLSRTAAKNRIRALEASGIIRGYQAILDPQA | YES |
| HMYVPEVPVPDLLGRSEEEAKNLIEDLGLVFKVSKREYSKEYDEGHVMEQSVDEGAKVKENYPVEVVISR | NO |
| HMYFEDEELDRFVGTPAGAYTEEDVEEFRDVLLSLDIEEVPSWVRSLQLRGIDFPETLRPELYLL | NO |
| HMNKDEFLNELKSYLSILEDEEQADILEEYTQHIDMKISTGLSEAEAIRDFGNVSELAAQILEAY | NO |

Now examine the next entry.
Query :: In plain terms: is recorded soluble fraction (log2) at least 0.03 for HMKASTRELLDFVLSQRGVSTASVAKALGISVQNASTRLKKLSNEGLIIRSEASSLTGGIEFLYS ?
Result :: NO
